The measurements presented in this section are drawn from PubChem BioAssay AID2060350.

Tested on: PDC 521955-158-R6-J3 spheroids, viability;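 note: spheroids exposed to drugs for 7 days before readout; 100% = DMSO vehicle control viability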
testSummary: Anticancer human tumor 521955-158-R6-J3-PDC patient-derived pancreatic carcinoma cell line growth inhibition [TAK]
measurementContext: second compound 3 µM; first compound 1 µM; hits give low values; spheroids with HUVEC and MSC
resultType: viability, T/C (%)

{"compound": "CCCS(=O)(=O)Nc1ccc(F)c(C(=O)c2c[nH]c3ncc(-c4ccc(Cl)cc4)cc23)c1F + CC(C)NCC(C(=O)N1CCN(c2ncnc3c2C(C)CC3O)CC1)c1ccc(Cl)cc1", "measuredValue": 97.5}
{"compound": "CC(C)(C)c1nc(-c2cccc(NS(=O)(=O)c3c(F)cccc3F)c2F)c(-c2ccnc(N)n2)s1 + CC(C)NCC(C(=O)N1CCN(c2ncnc3c2C(C)CC3O)CC1)c1ccc(Cl)cc1", "measuredValue": 119}
{"compound": "COc1c(OCCCN2CCOCC2)ccc2c3n(c(=NC(=O)c4cnc(N)nc4)nc12)CCN3 + CC(C)NCC(C(=O)N1CCN(c2ncnc3c2C(C)CC3O)CC1)c1ccc(Cl)cc1", "measuredValue": 19.5}
{"compound": "Cc1nc(NC(=O)N2CCCC2C(N)=O)sc1-c1ccnc(C(C)(C)C(F)(F)F)c1 (centres undefined) + CC(C)NCC(C(=O)N1CCN(c2ncnc3c2C(C)CC3O)CC1)c1ccc(Cl)cc1", "measuredValue": 51.5}
